procedure-details: Solubility of vorolanib in water
Assay type: physicochemical
measured-quantity: solubility

[
  {
    "entry-smiles": "Cc1[nH]c(/C=C2\\C(=O)Nc3ccc(F)cc32)c(C)c1C(=O)N[C@H]1CCN(C(=O)N(C)C)C1",
    "test-value": "< 10 µg/mL"
  }
]
